Assignment: determine reported MFI_SNU620 (@30 ug/ml) for the given binders.
- target_or_system: T1, CLDN18.2 endogenously expressed on SNU620 gastric cancer cells (UniProt P56856-2 1-261, limits assumed)
- T1 construct: whole, on cells; also called SU620
- method_notes: FACS Exp. 3, SNU620 cells
Use MFI as the unit, but write only the number.

Item: hz282-8 (antibody, V domains shown, humanized IgG; constant regions not specified) VH: QVQLQESGPGLVKPSETLSLTCTVAGFSLTSYNVYWIRQPPGKGLEWIGVIWNTGATRYNSALKSRVTISKDTSKSQVSLKLSSVTAADTAVYYCARDSAMPAIPFAYWGQGTLVTVSS VL: DIVMTQSPDSLAVSLGERATINCKSSQSLFGSVRQKNYLAWYQQKPGQSPKLLIYLASTRESGVPDRFSGSGSGTDFTLTISSLQAEDVAKYYCQQYYDIPWTFGGGTKVEIK | MFI_SNU620 (@30 ug/ml): 1190

In plain terms, hz282-2 (antibody, V domains shown, humanized IgG; constant regions not specified) VH: QVQLQESGPGLVKPSETLSLTCTVSGFSLTSYNVYWIRQPPGKGLEWIGVIWNTGATRYNSALKSRVTISKDTSKNQVSLKLSSVTAADTAVYYCARDSAMPAIPFAYWGQGTLVTVSS VL: DIVMTQSPDSLAVSLGERATINCKSSQSLFGSVRQKNYLAWYQQKPGQPPKLLIYLASTRESGVPDRFSGSGSGTDFTLTISSLQAEDVAVYYCQQYYDIPWTFGGGTKVEIK has a documented MFI_SNU620 (@30 ug/ml) of 1060

Entry hz282-12 (antibody, V domains shown, humanized IgG; constant regions not specified) VH: QVQLQESGPGLVKPSETLSLTCTVAGFSLTSYNVYWIRQPPGKGLEWIGVIWNTGATRYNSALKSRVTISKDTSKSQVSLKLSSVTAADTAVYYCARDSAMPAIPFAYWGQGTLVTVSS VL: DIQMTQSPSSLSASVGDRVTITCKSSQSLFGSVRQKNYLAWYQQKPGKAPKLLIYLASTRESGVPSRFSGSGSGTDFTLTISSLQPEDFATYYCQQYYDIPWTFGGGTKVEIK — recorded MFI_SNU620 (@30 ug/ml) = 1220

Just for reference, patent US20210380680A1 is where these values come from.
